# ASSAY_SUMMARY: fission yeast growth modulation, primary screen, strain 972, OD600, 24 h, no modulator (AID 1090);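 also: basal condition with compound alone and no growth modifier present; test concentration not given here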
# STATED_CONDITIONS: S. pombe 972 growth, higher = more signal, called active from +8 up or from −8 down
Active and inactive are the calls of the source.
Collected z-score values appear next to each entry.

Example results:
Q) Which z-score value is on record for COC(=O)C1=CC(CCCO)=CC(c2ccc(CN3CCCC3)cc2)N(Cc2sc3ccccc3c2Cl)C=C1C(=O)OC (centres undefined) ?
A) -7.33 (inactive)

Q) Which z-score value is on record for CC(C)C[C@@H]1NC(=O)[C@@]23C(=O)N[C@@H](Cc4ccccc4)C2[C@H](C)[C@@]2(C)O[C@H]2C3/C=C/C/C=C\CNC(=O)[C@@H](CC(C)C)NC1=O (some centres undefined) ?
A) -17.9 (active)

With those in mind, consider the next compound.
Q) Which z-score value is on record for C#CCN([C@H](/C=C/C1CC1)[C@@H](O)Cc1ccccc1)[C@@H](Cc1ccccc1)C(=O)OC ?
A) -0.825 (inactive)
